Data origin, for the record: ChEMBL document CHEMBL1201862

System: DMS-114
procedure-summary: NCI tumour cell line growth inhibition, 48 h
Calls of active or inactive are those of the source. Rule as the data show it: active = GI50 up to about 1.1 µM and inactive = higher.
Your answer must be one of the following: active, inactive

compound	group
CC1CC(C)C2OC2(C)C[C@H](C)C(=O)NC(C)C(=O)N(C)[C@H](Cc2c(Br)[nH]c3ccccc23)C(=O)N[C@@H](c2ccc(O)cc2)CC(=O)O1 (stereo partly drawn)	active
C[C@H]1COC2(c3ccccc3)CCC(=O)N12 (stereo partly drawn)	inactive
COc1ccc(/C=C2\CCCC(C(NO)c3ccc(OC)cc3)C2=NO)cc1 (stereo not drawn)	inactive
CC(=O)OC1CC2C(C)(C)OC(=O)CC(OC(C)=O)[C@]2(C)C2CCC3(C)C(=CCC3c3ccoc3)[C@]12C (stereo partly drawn)	inactive
Cc1cnc[nH]c1=O	inactive

Qu. // return assay outcome for CSc1nc(NC2OCC(OC(C)=O)C(OC(C)=O)C2OC(C)=O)c(/N=C(\C)C(C)=O)c(=O)n1C (stereo not drawn)
Ans. inactive

Qu. // return assay outcome for `CS(=O)(=O)N(CCC#N)c1ccc(C=O)cc1`
Ans. inactive

Qu. // return assay outcome for `C[C@H]1CC[C@H](NC(=O)N(CCCl)N=O)CC1`
Ans. inactive

Qu. // return assay outcome for `COC(=O)C12CC3CC(C1)CC(C(=O)OC)(C3)C2`
Ans. inactive

Qu. // return assay outcome for `O=C(/C=C/c1c(O)ccc2ccccc12)c1ccc2ccccc2c1`
Ans. inactive

Qu. // return assay outcome for `Cc1ccccc1-n1c(C)nc(-c2ccccc2)cc1=O`
Ans. inactive

Qu. // return assay outcome for `COc1ccc(/C=C\c2cc(OC)c(OC)c(OC)c2)cc1OCC(=O)O`
Ans. inactive

Qu. // return assay outcome for COC(=O)C1=C(c2ccc(OC)c(OC)c2)OC(c2ccc(OC)c(OC)c2)C1 (stereo not drawn)
Ans. inactive

Qu. // return assay outcome for `C[C@H](OCc1ccccc1)C(=O)N1CCS(=O)(=O)N2CCC[C@H]2C1=O`
Ans. inactive

Qu. // return assay outcome for `Cc1ccc(C(=O)Nc2ccc(S(=O)(=O)O)c3cc(S(=O)(=O)O)cc(S(=O)(=O)O)c23)cc1NC(=O)c1cccc(NC(=O)Nc2cccc(C(=O)Nc3cc(C(=O)Nc4ccc(S(=O)(=O)O)c5cc(S(=O)(=O)O)cc(S(=O)(=O)O)c45)ccc3C)c2)c1`
Ans. inactive

Qu. // return assay outcome for CC(=O)NC(CCCNC(=O)OCc1ccccc1)C(=O)O (stereo not drawn)
Ans. inactive

Qu. // return assay outcome for `O=[N+]([O-])/C=C/c1ccc(Cl)cc1Cl`
Ans. inactive

Qu. // return assay outcome for CC1(O)CCn2c(=O)c3cc4ccccc4cc3c(=O)n2C1O (stereo not drawn)
Ans. inactive

Qu. // return assay outcome for `COC[C@@H](/N=C/N1CCc2cc(OC)c(OC)cc2C1)C(C)(C)C`
Ans. inactive

Qu. // return assay outcome for `Cn1cnc(S[C@H]2[C@H]3C(=O)C=C4S[C@H]5C[C@]42C2=C(N5)C(=O)c4[nH]cc5c4C2=[N+]3CC5)c1C[C@H](N)C(=O)O`
Ans. inactive

Qu. // return assay outcome for `COc1c(NC(C)=O)cc(C)cc1NC(C)=O`
Ans. inactive

Qu. // return assay outcome for `COc1cc(-c2nnc3n2NC=C(C(=O)O)S3)cc(OC)c1OC`
Ans. inactive

Qu. // return assay outcome for `Cc1c(/C=N/NC(=O)c2ccccc2O)c(=O)n(-c2ccccc2)n1C`
Ans. inactive

----------
System: DU-145
procedure-summary: NCI tumour cell line growth inhibition, 48 h
The source made the active and inactive calls. No stated cut-off is given here; in the data, active = GI50 up to about 1.1 µM and inactive = higher.
Your answer must be one of the following: active, inactive

compound	subject-of-test	group
COC(=O)C(CC12CC3CC(CC(C3)C1)C2)NC(=O)C(N)CC(=O)O (centres undefined)	DU-145	inactive
COc1ccc(/C=C2\C[C@H]3[C@@H]4CCC5=C[C@@H](N6CCCC6)CC[C@]5(C)[C@H]4CC[C@]3(C)[C@H]2O)cc1	DU-145	inactive
O=S(=O)(/N=S(/Nc1ccccc1)C(F)(F)Cl)c1ccccc1 (centres undefined)	DU-145	inactive
O=c1[nH]c2cc3[nH]c4ncccc4c(=O)c3cc2[nH]1	DU-145	inactive
NC(=S)NS(=O)(=O)c1ccc(Cl)cc1Cl	DU-145	inactive

Qu. // return assay outcome for `Oc1cc(O)c2c(c1)O[C@H](c1cc(O)c(O)c(O)c1)[C@@H](O)C2`
Ans. inactive

Qu. // return assay outcome for COc1ccc2[nH]c(S(=O)(=O)N3CC(CCl)c4ccc(N)cc43)cc2c1 (centres undefined)
Ans. active

Qu. // return assay outcome for O=C1CSC2(CC(/C=C/c3cccc([N+](=O)[O-])c3)=NN2c2cccc(S(=O)(=O)O)c2)N1c1nc2ccccc2s1 (centres undefined)
Ans. inactive

Qu. // return assay outcome for COc1ccccc1N1C(=O)/C(=C\c2cccc(Oc3ccccc3)c2)S(=O)(=O)C1c1ccccc1 (centres undefined)
Ans. inactive

----------
// GI50 lookup, one value per entry
System: A498
procedure-summary: NCI tumour cell line growth inhibition, 48 h
Active and inactive are the calls of the source. No stated cut-off is given here; in the data, active = GI50 up to about 1.1 µM and inactive = higher.

molecule	subject-of-test	reported-endpoint	measured-value
O=c1[nH]c2ccccc2n1CCCN1CCC(n2c(=O)[nH]c3cc(Cl)ccc32)CC1	A498	GI50	23 µM (inactive)
O=C(N/N=C/c1ccccc1O)c1cccc([N+](=O)[O-])c1	A498	GI50	76.7 µM (inactive)
COc1cccc([C@@]2(O)c3c(ccc(O)c3OC)[C@H]2OC)c1OC	A498	GI50	58.1 µM (inactive)
CCCC1=C(CC)C(C(=O)Nc2c(C)cccc2C)=NC(S)N1 (stereo not given)	A498	GI50	> 100 µM (inactive)

Let us move to another entry and its GI50.
Qu. Which GI50 is listed for Cc1ccccc1C(C#N)/C(=N/NC(=O)C(=O)NN)C(=O)Nc1cccc(C(F)(F)F)c1 (stereo not given) ?
Ans. > 100 µM (inactive)

----------
Test system: SR
procedure-summary: NCI tumour cell line growth inhibition, 48 h
Calls of active or inactive are those of the source. Cut-off read from the data, not from the text of the source: active = GI50 up to about 1.1 µM and inactive = higher.
Your answer must be one of the following: y (active), n (inactive)

compound	group
CSc1nnc(SCc2nn3c(=O)cc(C)nc3s2)s1	n
O=C1Nc2ccccc2/C1=N/NC(=S)Nc1ccccc1Cl	y
COc1cccc(C2c3cc4c(cc3OC(Nc3ccccc3)C2C)OCO4)c1O (stereo not given)	n
COc1ccnc2c1C(=O)c1nc3ccccc3c3ccnc-2c13	y
CC(=O)n1nc(-c2[nH]c(C)c(-c3nn(C(C)=O)c(=S)o3)c2C)oc1=S	n
Cc1c(/C=N/NC(=O)c2ccccc2O)c(=O)n(-c2ccccc2)n1C	n

Qu. // return assay outcome for `Cc1cc2c(cc1-c1cc3c(cc1C)C(C(C)C)=C(O)C(=O)/C3=C\Nc1cccc3c(N)cccc13)/C(=C/Nc1cccc3c(N)cccc13)C(=O)C(O)=C2C(C)C`
Ans. n

Qu. // return assay outcome for `[O-]c1c[n+](-c2ccccc2)no1`
Ans. n

Qu. // return assay outcome for `O=C1Nc2ccccc2/C1=C/c1ccccc1`
Ans. n

Qu. // return assay outcome for C/C=C(/C)C(=O)O[C@H](C[C@@H](C)[C@H]1CC(c2ccoc2)OC1=O)[C@@]1(C)C(=O)CCC2O[C@]21C (stereo not given in full)
Ans. n

Qu. // return assay outcome for `Cc1ccccc1C1=C/C(=C(\SS/C(C(=O)c2ccc(OCC(=O)O)c(Cl)c2Cl)=C2\C=C(c3ccccc3C)SS2)C(=O)c2ccc(OCC(=O)O)c(Cl)c2Cl)SS1`
Ans. n

Qu. // return assay outcome for O=C(O)c1c2c(cc3c1CC1(Cc4ccccc4C1=O)C3)CCC2 (stereo not given)
Ans. n

Qu. // return assay outcome for CCOC(=O)CCC(NC(=O)c1ccc(Nc2nc3ccc(C(F)(F)F)cc3nc2-c2ccccc2)cc1)C(=O)OCC (stereo not given)
Ans. n

Qu. // return assay outcome for COC1O[C@@H]2CCN3C(=O)[C@@H](OC(=O)c4ccc([N+](=O)[O-])cc4)[C@H]1C23 (stereo not given in full)
Ans. n

Qu. // return assay outcome for `CC1=Nc2c(C#N)ncn2N=C(C)C1`
Ans. n

Qu. // return assay outcome for O=S1(=O)C(c2ccccc2)C(N2CCCCC2)C1C1CC2c3ccccc3C1c1ccccc12 (stereo not given)
Ans. n

Qu. // return assay outcome for `Oc1c(Cl)c(Cl)c(O)c(CCNc2nccs2)c1Cl`
Ans. n

----------
// GI50 lookup, one value per entry
System: NCI-H522
procedure-summary: NCI tumour cell line growth inhibition, 48 h
Calls of active or inactive are those of the source. Rule as the data show it: active = GI50 up to about 1.1 µM and inactive = higher.

Worked set:
compound	GI50
COc1cc(-c2nnc3n2NC=C(C(=O)O)S3)cc(OC)c1OC	> 100 µM (inactive)
COc1nc(N)c(C#N)c(C#N)c1C#N	> 10 µM (inactive)
CC(=O)Oc1ccc(C2SCc3nc4ccccc4n32)cc1 (stereo unspecified)	22.8 µM (inactive)

Qu. What is its GI50 for NCI-H522? Entry: `Cc1c(/C=N/NC(=O)c2ccccc2O)c(=O)n(-c2ccccc2)n1C`
Ans. > 100 µM (inactive)

Qu. What is its GI50 for NCI-H522? Entry: CC1(C)OC([C@H](O)CO)C([C@H]2NCCS2)O1 (stereo partly specified)
Ans. > 100 µM (inactive)

Qu. What is its GI50 for NCI-H522? Entry: c1ccc(CC2COC(c3cccs3)=N2)cc1 (stereo unspecified)
Ans. > 84.7 µM (inactive)
